Entries below carry reported Ki on UniProtKB Q8N1Q1.
Sequence (Q8N1Q1 whole entry): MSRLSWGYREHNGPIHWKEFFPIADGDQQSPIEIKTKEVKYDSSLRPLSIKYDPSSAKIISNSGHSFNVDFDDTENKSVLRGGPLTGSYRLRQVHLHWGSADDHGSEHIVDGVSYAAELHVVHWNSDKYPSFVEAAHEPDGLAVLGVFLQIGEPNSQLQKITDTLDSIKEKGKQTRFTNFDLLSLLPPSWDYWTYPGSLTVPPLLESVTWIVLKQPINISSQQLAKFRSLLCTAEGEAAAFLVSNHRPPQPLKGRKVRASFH

Recorded results for 3 compounds are shown here.
Cc1ccc2nc(NC(=O)CNC(=O)OCc3ccccc3)sc2c1	94.6 µM
CS(=O)(=O)c1ccc2nc(NC(=O)CNC(=O)OCC3c4ccccc4-c4ccccc43)sc2c1	> 100 µM
Cc1ccc2nc(NC(=O)CNC(=O)OC(C)(C)C)sc2c1	> 100 µM

Turning now to a further record.
Fill: Ki (UniProtKB Q8N1Q1) for this compound Cc1ccc2nc(-c3ccc(NC(=O)C(Cc4ccccc4)NC(=O)OCc4ccccc4)cc3)sc2c1 (stereo not shown) > 100 µM
